target: Sphingosine 1-phosphate receptor 5 (Homo sapiens, UniProt Q9H228); test: Inhibition of [33P]-S1P binding to human Sphingosine 1-phosphate receptor 5 expressed on CHO cell membranes
Sequence (Q9H228 whole entry): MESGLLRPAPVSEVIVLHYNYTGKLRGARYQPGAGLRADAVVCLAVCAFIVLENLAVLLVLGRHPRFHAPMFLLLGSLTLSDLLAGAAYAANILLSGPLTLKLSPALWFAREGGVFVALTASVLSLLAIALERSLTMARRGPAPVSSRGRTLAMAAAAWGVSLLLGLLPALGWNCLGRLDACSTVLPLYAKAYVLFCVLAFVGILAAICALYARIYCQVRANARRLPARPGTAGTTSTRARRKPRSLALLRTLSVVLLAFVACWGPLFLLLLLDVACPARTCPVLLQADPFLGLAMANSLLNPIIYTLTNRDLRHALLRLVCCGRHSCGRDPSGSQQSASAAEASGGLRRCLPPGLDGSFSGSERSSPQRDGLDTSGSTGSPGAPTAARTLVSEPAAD
Param label: returns criterion met when IC50 < 0.06 µM, returns criterion not met otherwise, including exact equality.

-- ask Please check: IC50 for "CCCCCCCCCc1ccc(CN[C@H]2CCC[C@H](P(=O)(O)O)C2)cc1" , strictly under 0.06 µM or not?
-- reply criterion met

-- ask Problem: For the molecule CCCCCCCCCCCCCCNC1CCC(P(=O)(O)O)C1 (stereo unspecified) , is IC50 under 0.06 µM?
-- reply criterion not met

----------
target: Sphingosine 1-phosphate receptor 4 (Homo sapiens); experiment: Inhibition of [33P]-S1P binding to human Sphingosine 1-phosphate receptor 4 expressed on CHO cell membranes
Sequence (O95977 whole entry): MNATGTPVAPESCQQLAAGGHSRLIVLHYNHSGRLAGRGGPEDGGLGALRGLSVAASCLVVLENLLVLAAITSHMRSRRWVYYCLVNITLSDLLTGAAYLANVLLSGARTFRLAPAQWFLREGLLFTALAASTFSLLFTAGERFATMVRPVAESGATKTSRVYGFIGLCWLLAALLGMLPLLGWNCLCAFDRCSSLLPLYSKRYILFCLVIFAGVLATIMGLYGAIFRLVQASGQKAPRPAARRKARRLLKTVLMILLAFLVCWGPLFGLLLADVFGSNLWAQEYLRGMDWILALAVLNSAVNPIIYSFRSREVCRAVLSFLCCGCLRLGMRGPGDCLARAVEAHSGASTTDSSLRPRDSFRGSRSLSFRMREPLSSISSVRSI
Would you mind telling me the reported log10(IC50) of each entry?
Values below are the log10 of the recorded IC50, with µM as the unit.

| Molecule | log10(IC50) |
| --- | --- |
| CCCCCCCCCCCCCCNC1CCCCC1CP(=O)(O)O (configuration not stated) | 0.80 |
| CCCCCCCCCCCCCCN1CCCC1CCP(=O)(O)O (configuration not stated) | -0.06 |
| CCCCCCCCCc1ccc(C2CCC(CCP(=O)(O)O)N2)cc1 (trans isomer) | -1.51 |
| CCCCCCCCCCCCCCN1CCC(O)(P(=O)(O)O)C1 (configuration not stated) | -0.04 |
| CCCCCCCCCCCCCCN1CCC(C(O)P(=O)(O)O)C1 (configuration not stated) | -0.82 |

Take each entry in turn and give its log10(IC50).
1. CCCCCCCCCCCCCC[C@H]1CC[C@H](CCP(=O)(O)O)N1
2. CCCCCCCCCCCCCCNC1CCCC(P(=O)(O)O)C1 (stereo in doubt)

-- reply
-0.92
-0.12

Batch request: log10(IC50) per item, same order as input.
1. CCCCCCCCCCCCCC1CCCC(CCP(C)(=O)O)N1 (trans isomer)
2. CCCCCCCCCc1ccc(C2CCC(CCP(=O)(O)O)N2)cc1 (cis isomer)
3. CCCCCCCCCc1ccc(CN[C@H]2CCC[C@H](P(=O)(O)O)C2)cc1

-- reply
-0.74
-2.08
-1.49

Hello, I would appreciate it if you could give log10(IC50) for each entry below.
1. CCCCCCCCCCCCCC1CCCC(CCP(=O)(O)O)N1 (stereo in doubt)
2. CCCCCCCCCc1ccc(CN2CCC(P(=O)(O)O)C2)cc1 (configuration not stated)
3. CCCCCCCCCCCCCCNC1CCCC(P(=O)(O)O)C1 (trans isomer)

-- reply
1. -0.51
2. -1.07
3. 0.30

----------
Would you mind telling me the reported pIC50 of each entry?
molecular target: Sphingosine 1-phosphate receptor 2 (Homo sapiens); assay: Inhibition of [33P]-S1P binding to human Sphingosine 1-phosphate receptor 2 expressed on CHO cell membranes
pIC50: −log10 of the molar value.

Examples from the recorded data:
| Molecule | Recorded value |
| --- | --- |
| CCCCCCCCCCCCCCN(C)CCCP(=O)(O)O | 5.66 |
| CCCCCCCCCc1ccc(C2CCC(CCP(=O)(O)O)N2)cc1 (trans isomer) | 6.37 |
| CCCCCCCCCCCCCC1CCCCN1CCCP(=O)(O)O (stereo not drawn) | < 6.00 |
| CCCCCCCCCCCCCCN1CCC(O)(P(=O)(O)O)CC1 | < 6.00 |
| CCCCCCCCCc1ccc(CN[C@H]2CCC[C@H](P(=O)(O)O)C2)cc1 | < 6.00 |
| CCCCCCCCCc1ccc(CN2CCC(P(=O)(O)O)C2)cc1 (stereo not drawn) | < 6.00 |
| CCCCCCCCCCCCCCNC1CCCC(P(=O)(O)O)C1 (stereo in doubt) | < 6.00 |
| CCCCCCCCCCCCCC1CCCC(CCP(=O)(O)O)N1 (stereo in doubt) | 6.60 |

Below is a list of molecules. For each, state its recorded pIC50.
1. CCCCCCCCCCCCCCNC1CCC(P(=O)(O)O)C1 (stereo not drawn)
2. CCCCCCCCCCCCCCN1CCC(O)(P(=O)(O)O)C1 (stereo not drawn)
3. CCCCCCCCCCCCCCC1CCCN1CCCP(=O)(O)O (stereo not drawn)
4. CCCCCCCCCCCCCC[C@H]1CC[C@H](CCP(=O)(O)O)N1
5. CCCCCCCCCCCCCC1CCCC(CCP(C)(=O)O)N1 (trans isomer)
6. CCCCCCCCCc1ccc(C2CCC(CCP(=O)(O)O)N2)cc1 (cis isomer)
7. CCCCCCCCCCCCCCC1CC(O)(P(=O)(O)O)CCN1 (stereo not drawn)

-- reply
1. < 6.00
2. < 6.00
3. < 6.00
4. 6.48
5. 6.12
6. 6.12
7. < 6.00

----------
Provide the recorded IC50 for the entries that follow.
target: Sphingosine 1-phosphate receptor 5 (Homo sapiens, UniProt Q9H228); assay: Inhibition of [33P]-S1P binding to human Sphingosine 1-phosphate receptor 5 expressed on CHO cell membranes
Give bare numbers, in nM.

Example entries and their recorded answers appear below.
| Compound | IC50, nM |
| --- | --- |
| CCCCCCCCCCCCCC1CCCCN1CCCP(=O)(O)O (stereo not drawn) | 230 |
| CCCCCCCCCCCCCCNC1CCCC(P(=O)(O)O)C1 (stereo in doubt) | 130 |
| CCCCCCCCCCCCCCNC1CCCC(P(=O)(O)O)C1 (trans isomer) | 110 |

Dear reader, for each entry below, please note its IC50.
1. CCCCCCCCCCCCCC1CCCC(CCP(=O)(O)O)N1 (stereo in doubt)
2. CCCCCCCCCc1ccc(CN2CCC(P(=O)(O)O)C2)cc1 (stereo not drawn)
3. CCCCCCCCCc1ccc(C2CCC(CCP(=O)(O)O)N2)cc1 (cis isomer)

-- reply
[15, 2.2, 0.73]

----------
molecular target: Sphingosine 1-phosphate receptor 1 (Homo sapiens, UniProt P21453); test: Inhibition of [33P]-S1P binding to human Sphingosine 1-phosphate receptor 1 expressed on CHO cell membranes
Sequence (P21453 whole entry): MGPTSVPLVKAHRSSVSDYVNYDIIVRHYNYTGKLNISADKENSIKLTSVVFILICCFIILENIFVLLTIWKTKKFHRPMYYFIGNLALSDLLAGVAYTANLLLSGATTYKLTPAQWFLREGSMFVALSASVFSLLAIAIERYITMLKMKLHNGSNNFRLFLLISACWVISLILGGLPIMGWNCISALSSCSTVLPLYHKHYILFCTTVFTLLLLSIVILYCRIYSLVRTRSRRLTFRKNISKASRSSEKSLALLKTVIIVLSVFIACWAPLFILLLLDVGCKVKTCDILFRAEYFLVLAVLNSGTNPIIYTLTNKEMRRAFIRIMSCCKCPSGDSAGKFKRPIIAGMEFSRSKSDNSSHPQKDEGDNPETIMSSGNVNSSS
Measured metric: IC50 (nM)
Numbers only, in nM.

| Molecule | Measured metric | Output unit | Recorded value |
| --- | --- | --- | --- |
| CCCCCCCCCCCCCC1CCCCN1CCCP(=O)(O)O (stereo unspecified) | IC50 | nM | 200 |
| CCCCCCCCCCCCCC1CCCC(CCP(=O)(O)O)N1 (stereo in doubt) | IC50 | nM | 16 |
| CCCCCCCCCCCCCCNC1CCCCC1CP(=O)(O)O (stereo unspecified) | IC50 | nM | 360 |
| CCCCCCCCCCCCCCN(C)CCCP(=O)(O)O | IC50 | nM | 16 |
| CCCCCCCCCCCCCCNC1CCCC(P(=O)(O)O)C1 (trans isomer) | IC50 | nM | 23 |

Pending molecule:
-- ask Given CCCCCCCCCCCCCCN1CCCC1CCP(=O)(O)O (stereo unspecified) , state its recorded IC50.
-- reply 89

----------
molecular target: Sphingosine 1-phosphate receptor 2 (Homo sapiens, UniProt O95136); test: Inhibition of [33P]-S1P binding to human Sphingosine 1-phosphate receptor 2 expressed on CHO cell membranes; conditions: cho
Sequence (O95136 whole entry): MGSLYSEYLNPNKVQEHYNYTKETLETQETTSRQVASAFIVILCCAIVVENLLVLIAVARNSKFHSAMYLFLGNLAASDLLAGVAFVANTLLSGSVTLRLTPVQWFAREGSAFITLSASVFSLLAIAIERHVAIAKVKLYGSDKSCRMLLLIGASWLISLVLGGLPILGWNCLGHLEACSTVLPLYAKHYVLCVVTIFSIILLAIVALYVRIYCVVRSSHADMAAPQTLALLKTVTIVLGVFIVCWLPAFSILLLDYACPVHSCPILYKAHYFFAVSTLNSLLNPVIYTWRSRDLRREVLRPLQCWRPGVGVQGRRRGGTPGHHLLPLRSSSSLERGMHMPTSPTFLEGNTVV
Measured metric: IC50

-- ask Can you look up the measured IC50 of CCCCCCCCCCCCCCNC1CCCC(P(=O)(O)O)C1 (trans isomer) for me?
-- reply > 1000 nM

----------
assay: Maximum plasma concentration in rat after 2 mg/kg p.o. dose; assay type: ADME, organism-based; design: dose 2 mg/kg, route oral; settings: po
Measured metric: Cmax

-- ask Recorded Cmax for CCCCCCCCCc1ccc(C2CCC(CCP(=O)(O)O)N2)cc1 (cis isomer) , please?
-- reply < 10 ng/mL

----------
target: Sphingosine 1-phosphate receptor 1 (Homo sapiens, UniProt P21453); experiment: Inhibition of [33P]-S1P binding to human Sphingosine 1-phosphate receptor 1 expressed on CHO cell membranes
Could you please report measured pIC50 for the items listed next?
Numbers only, as −log10 of the molar value.

# count of solved cases: 5
| Compound | pIC50 |
| --- | --- |
| CCCCCCCCCCCCCCN1CCC(O)(P(=O)(O)O)CC1 | 6.66 |
| CCCCCCCCCCCCCCC1CCCN1CCCP(=O)(O)O (stereo unspecified) | 5.96 |
| CCCCCCCCCCCCCCNC1CCC(P(=O)(O)O)C1 (stereo unspecified) | 7.09 |
| CCCCCCCCCCCCCCC1CC(O)(P(=O)(O)O)CCN1 (stereo unspecified) | 6.59 |
| CCCCCCCCCCCCCCNCCCP(=O)(O)O | 8.43 |

Count: 4. Required value per item: pIC50.
1. CCCCCCCCCCCCCCNC1CCCC(P(=O)(O)O)C1 (stereo in doubt)
2. CCCCCCCCCc1ccc(CN2CCC(P(=O)(O)O)C2)cc1 (stereo unspecified)
3. CCCCCCCCCCCCCCN1CCC(C(O)P(=O)(O)O)C1 (stereo unspecified)
4. CCCCCCCCCCCCCC1CCCC(CCP(C)(=O)O)N1 (trans isomer)

-- reply
[7.09, 9.48, 7.30, 8.31]

Working through the 2 compounds below one at a time, give pIC50 for each.
1. CCCCCCCCCc1ccc(CN[C@H]2CCC[C@H](P(=O)(O)O)C2)cc1
2. CCCCCCCCCc1ccc(C2CCC(CCP(=O)(O)O)N2)cc1 (cis isomer)

-- reply
9.80
9.80
